# Assayed Target: USP28 (His-tagged USP28-FL-mammalian) (Homo sapiens, UniProt Q96RU2)
# Construct: Expression of USP28 (1-1077)-TEV-6*His (pTT5 vector) was carried out in Expi293f cells; made in house; host or cells: Expi293F cells (pTT5 vector)
# Sequence (Q96RU2 whole entry): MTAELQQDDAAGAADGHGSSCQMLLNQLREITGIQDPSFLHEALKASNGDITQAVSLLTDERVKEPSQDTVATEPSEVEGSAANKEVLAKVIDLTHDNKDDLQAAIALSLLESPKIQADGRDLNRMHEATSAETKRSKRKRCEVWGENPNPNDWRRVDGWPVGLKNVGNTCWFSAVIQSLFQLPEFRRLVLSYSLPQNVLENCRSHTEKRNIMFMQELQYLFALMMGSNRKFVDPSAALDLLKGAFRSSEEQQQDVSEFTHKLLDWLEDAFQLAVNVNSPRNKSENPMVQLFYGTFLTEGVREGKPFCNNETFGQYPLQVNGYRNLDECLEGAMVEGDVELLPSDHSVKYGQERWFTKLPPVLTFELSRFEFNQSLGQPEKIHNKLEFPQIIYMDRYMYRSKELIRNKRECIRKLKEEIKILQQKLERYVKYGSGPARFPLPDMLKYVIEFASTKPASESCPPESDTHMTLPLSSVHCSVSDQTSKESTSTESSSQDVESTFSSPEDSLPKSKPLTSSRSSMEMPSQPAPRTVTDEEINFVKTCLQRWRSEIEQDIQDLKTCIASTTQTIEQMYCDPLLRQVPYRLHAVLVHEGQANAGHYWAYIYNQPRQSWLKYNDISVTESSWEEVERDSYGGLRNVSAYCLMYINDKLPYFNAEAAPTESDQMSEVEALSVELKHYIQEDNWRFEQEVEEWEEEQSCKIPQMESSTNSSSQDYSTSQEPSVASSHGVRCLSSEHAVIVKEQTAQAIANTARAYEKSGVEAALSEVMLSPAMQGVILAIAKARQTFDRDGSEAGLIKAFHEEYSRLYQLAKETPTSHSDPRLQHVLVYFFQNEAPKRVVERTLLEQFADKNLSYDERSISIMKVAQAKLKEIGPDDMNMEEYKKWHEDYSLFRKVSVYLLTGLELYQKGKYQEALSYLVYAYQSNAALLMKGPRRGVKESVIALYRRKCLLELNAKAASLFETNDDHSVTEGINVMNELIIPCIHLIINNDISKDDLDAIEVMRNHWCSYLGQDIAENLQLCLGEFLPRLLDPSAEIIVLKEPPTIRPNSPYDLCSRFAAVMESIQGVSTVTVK
# Protocol Description: Ubiquitin-Rhodamine 110 Assay for USP28 Activity, Example A-1(a)
# Type: biochemical
# Applied Conditions: Ubiquitin-Rhodamine 110 biochemical assay, read-out: USP28 A-1(a) IC50 range
Quantity Measured: IC50

Solved cases (5 shown):
The observed IC50 for `Cc1cnc2c(N)c(C(=O)N[C@H]3CCc4nc(N5C[C@H](N)C6(C5)OCCO6)ccc4C3)sc2n1` when tested with USP28 (His-tagged USP28-FL-mammalian) (Homo sapiens, UniProt Q96RU2) stands at 200 to 2000 nM

The observed IC50 for `Cc1nc2sc(C(=O)N[C@H]3CCc4nc(N5C[C@@H](CF)[C@H](N)C5)ccc4C3)c(N)c2cc1F` when tested with USP28 (His-tagged USP28-FL-mammalian) (Homo sapiens, UniProt Q96RU2) stands at 50 to 200 nM

The observed IC50 for `Cc1ccc2c(N)c(C(=O)N[C@H]3CCc4nc(N5CC[C@@H](N)[C@@H]5C(F)F)ccc4C3)sc2n1` when tested with USP28 (His-tagged USP28-FL-mammalian) (Homo sapiens, UniProt Q96RU2) stands at 50 to 200 nM

The observed IC50 for `CO[C@H](C)CO[C@H]1CN(c2ccc3c(n2)CC[C@H](NC(=O)c2sc4nc(C)ccc4c2N)C3)C[C@@H]1N` when tested with USP28 (His-tagged USP28-FL-mammalian) (Homo sapiens, UniProt Q96RU2) stands at 50 to 200 nM

The observed IC50 for `CO[C@@H]1CCCN(c2ccc3c(n2)CC[C@H](NC(=O)c2sc4nc(C)ccc4c2N)C3)C[C@H]1N` when tested with USP28 (His-tagged USP28-FL-mammalian) (Homo sapiens, UniProt Q96RU2) stands at 1 to 50 nM

More entries:
The observed IC50 for `CO[C@@H]1CN(c2ccc3c(n2)CC[C@H](NC(=O)c2sc4nc(C)cnc4c2N)C3)C[C@@H]1N` when tested with USP28 (His-tagged USP28-FL-mammalian) (Homo sapiens, UniProt Q96RU2) stands at 50 to 200 nM

The observed IC50 for `Cc1ccc2c(N)c(C(=O)N[C@H]3CCc4nc(N5C[C@H](N)CC(F)(F)C5)ccc4C3)sc2n1` when tested with USP28 (His-tagged USP28-FL-mammalian) (Homo sapiens, UniProt Q96RU2) stands at 1 to 50 nM

The observed IC50 for `Cc1ccc2c(N)c(C(=O)N[C@H]3CCc4nc(N5C[C@@H](N)CC(F)(F)C5)ccc4C3)sc2n1` when tested with USP28 (His-tagged USP28-FL-mammalian) (Homo sapiens, UniProt Q96RU2) stands at 1 to 50 nM

The observed IC50 for `CN[C@@H]1CN(c2ccc3c(n2)CC[C@H](NC(=O)c2sc4nc(C)cnc4c2N)C3)C[C@@H]1OC` when tested with USP28 (His-tagged USP28-FL-mammalian) (Homo sapiens, UniProt Q96RU2) stands at 200 to 2000 nM

The observed IC50 for `Cc1ccc2c(N)c(C(=O)N[C@H]3CCc4nc(N5C[C@H](N)[C@@]6(CCCCO6)C5)ccc4C3)sc2n1` when tested with USP28 (His-tagged USP28-FL-mammalian) (Homo sapiens, UniProt Q96RU2) stands at 50 to 200 nM

The observed IC50 for `CN[C@@H]1CN(c2ccc3c(n2)CC[C@H](NC(=O)c2sc4nc(C)ccc4c2N)C3)C[C@@H]1COC` when tested with USP28 (His-tagged USP28-FL-mammalian) (Homo sapiens, UniProt Q96RU2) stands at 50 to 200 nM

The observed IC50 for `CO[C@H]1CN(c2ccc3c(n2)CC[C@H](NC(=O)c2sc4cnccc4c2N)C3)C[C@@H]1N` when tested with USP28 (His-tagged USP28-FL-mammalian) (Homo sapiens, UniProt Q96RU2) stands at > 2000 nM

The observed IC50 for `Cc1ccc2c(N)c(C(=O)N[C@H]3CCc4nc(N5C[C@@H](COC(F)F)[C@@H](N)C5)ccc4C3)sc2n1` when tested with USP28 (His-tagged USP28-FL-mammalian) (Homo sapiens, UniProt Q96RU2) stands at 50 to 200 nM

The observed IC50 for `COC[C@@H]1CN(c2ccc3c(n2)CC[C@H](NC(=O)c2sc4cnccc4c2N)C3)C[C@@H]1N` when tested with USP28 (His-tagged USP28-FL-mammalian) (Homo sapiens, UniProt Q96RU2) stands at > 2000 nM
